Entries and their measured IC50 follow.
target: HIV integrase (Human immunodeficiency virus type 1 group M subtype B, UniProt P12497, F1332H); construct: HIV integrase full length gene; assay: Determination of enzyme (HIV integrase) inhibitory activity; conditions: recombinant integrase protein (phenylalanine at codon 185 substituted by histidine); donor/target DNA, absorbance at 450 nm; read-out: Anti-integrase activity (IC50 value)

Would you please look over these solved cases?
O=C(CO)NCc1cc(C(=O)O)c(=O)n2cc(Cc3cccc(Cl)c3F)ccc12	10 to 100 nM
O=C(Cc1ccccc1)NCc1cc(C(=O)O)c(=O)n2cc(Cc3cccc(Cl)c3F)ccc12	10 to 100 nM
O=C(NCc1cc(C(=O)O)c(=O)n2cc(Cc3cccc(Cl)c3F)ccc12)c1ccccc1	10 to 100 nM
O=C(O)c1ccc2ccc(Cc3cccc(Cl)c3F)cn2c1=O	100 to 1000 nM

Consider the compound shown here: CC(C)C(CO)c1cc(C(=O)O)c(=O)n2cc(Cc3cccc(Cl)c3F)ccc12 (centres unmarked) What is its recorded IC50? 10 to 100 nM

Param item = CCCC(=O)NCc1cc(C(=O)O)c(=O)n2cc(Cc3cccc(Cl)c3F)ccc12 ; retrieve measured IC50. 10 to 100 nM

Name the reported IC50 value associated with the compound CC(=O)NCc1cc(C(=O)O)c(=O)n2cc(Cc3cccc(Cl)c3F)ccc12 10 to 100 nM

----------
Each entry below lists one item and its recorded pIC50 value.
molecular target: HIV integrase (Human immunodeficiency virus type 1 group M subtype B, UniProt P12497, F1332H); construct: HIV integrase full length gene; assay: Determination of enzyme (HIV integrase) inhibitory activity; details: recombinant integrase protein (phenylalanine at codon 185 substituted by histidine); donor/target DNA, absorbance at 450 nm; read-out: Anti-integrase activity (IC50 value)
pIC50: −log10 of the molar value.

O=C(O)CCC(=O)NCc1cc(C(=O)O)c(=O)n2cc(Cc3cccc(Cl)c3F)ccc12	7.00 to 8.00
CC(C)(C)OC(=O)NCc1cc(C(=O)O)c(=O)n2cc(Cc3cccc(Cl)c3F)ccc12	7.00 to 8.00
COc1cc2c([C@H](CO)C(C)(C)C)cc(C(=O)O)c(=O)n2cc1Cc1cccc(Cl)c1F	> 8.00
CCCc1cc(C(=O)O)c(=O)n2cc(Cc3cccc(Cl)c3F)ccc12	7.00 to 8.00
CC(C)(C)[C@@H](CO)c1cc(C(=O)O)c(=O)n2cc(Cc3cccc(Cl)c3F)ccc12	> 8.00
CC(C)C(=O)NCc1cc(C(=O)O)c(=O)n2cc(Cc3cccc(Cl)c3F)ccc12	7.00 to 8.00
CNCc1cc(C(=O)O)c(=O)n2cc(Cc3cccc(Cl)c3F)ccc12	6.00 to 7.00
O=C(O)c1ccc2ccc(Cc3ccccc3)cn2c1=O	5.00 to 6.00
COC(C)(C)C(=O)NCc1cc(C(=O)O)c(=O)n2cc(Cc3cccc(Cl)c3F)ccc12	6.00 to 7.00
CN(C)Cc1cc(C(=O)O)c(=O)n2cc(Cc3cccc(Cl)c3F)ccc12	6.00 to 7.00

// lookup pIC50 for N#Cc1cc(C(=O)O)c(=O)n2cc(Cc3cccc(Cl)c3F)ccc12 7.00 to 8.00

Quick one: pIC50 for O=C(O)c1cc(NCCO)c2ccc(Cc3cccc(Cl)c3F)cn2c1=O ? 6.00 to 7.00

Give the measured pIC50 of COc1cc2c([C@H](CO)C(C)C)cc(C(=O)O)c(=O)n2cc1Cc1cccc(Cl)c1F . > 8.00

Given the molecule CCC(=O)NCc1cc(C(=O)O)c(=O)n2cc(Cc3cccc(Cl)c3F)ccc12 , what is its reported pIC50? 7.00 to 8.00

Item O=C(O)c1cc(CO)c2ccc(Cc3cccc(Cl)c3F)cn2c1=O has what recorded pIC50? 7.00 to 8.00

I am curious: what pIC50 value has been reported for COC(=O)NCc1cc(C(=O)O)c(=O)n2cc(Cc3cccc(Cl)c3F)ccc12 ? 7.00 to 8.00

Any idea what pIC50 was measured for CC(C)c1cc(C(=O)O)c(=O)n2cc(Cc3cccc(Cl)c3F)ccc12 ? 7.00 to 8.00

----------
molecular target: HIV integrase (Human immunodeficiency virus type 1 group M subtype B, UniProt P12497, F1332H); construct: HIV integrase full length gene; assay: Determination of enzyme (HIV integrase) inhibitory activity; settings: recombinant integrase protein (phenylalanine at codon 185 substituted by histidine); donor/target DNA, absorbance at 450 nm; read-out: Anti-integrase activity (IC50 value)
Each item that follows carries a reported IC50.

Consider the following illustrative entries.
CCOC(=O)c1cc(NC(=O)OC(C)(C)C)c2ccc(Cc3cccc(Cl)c3F)cn2c1=O	100 to 1000 nM
CS(=O)(=O)Nc1cc(C(=O)O)c(=O)n2cc(Cc3cccc(Cl)c3F)ccc12	100 to 1000 nM
CO[C@@H](C)C(=O)NCc1cc(C(=O)O)c(=O)n2cc(Cc3cccc(Cl)c3F)ccc12	10 to 100 nM
COCOc1cc(C(=O)O)c(=O)n2cc(Cc3cccc(Cl)c3F)ccc12	100 to 1000 nM
O=C(O)Cc1cc(C(=O)O)c(=O)n2cc(Cc3cccc(Cl)c3F)ccc12	10 to 100 nM
CCNC(=O)NCc1cc(C(=O)O)c(=O)n2cc(Cc3cccc(Cl)c3F)ccc12	10 to 100 nM
CN(Cc1cc(C(=O)O)c(=O)n2cc(Cc3cccc(Cl)c3F)ccc12)C(=O)OC(C)(C)C	10 to 100 nM
CC(=O)NCC(=O)NCc1cc(C(=O)O)c(=O)n2cc(Cc3cccc(Cl)c3F)ccc12	100 to 1000 nM
C[C@@H](CO)c1cc(C(=O)O)c(=O)n2cc(Cc3cccc(Cl)c3F)ccc12	10 to 100 nM
CC(C)(C)OC(=O)c1cc(C(=O)O)c(=O)n2cc(Cc3cccc(Cl)c3F)ccc12	100 to 1000 nM

So what's the measured IC50 for this one? CC(C)(C)C(=O)NCc1cc(C(=O)O)c(=O)n2cc(Cc3cccc(Cl)c3F)ccc12 10 to 100 nM

Which IC50 value is on record for CCOCC(=O)NCc1cc(C(=O)O)c(=O)n2cc(Cc3cccc(Cl)c3F)ccc12 ? 10 to 100 nM

What value of IC50 has been recorded for this entry: O=C(O)C(=O)NCc1cc(C(=O)O)c(=O)n2cc(Cc3cccc(Cl)c3F)ccc12 10 to 100 nM

Entry O=C(O)c1cc(CCO)c2ncc(Cc3cccc(Cl)c3F)cn2c1=O : reported IC50 = ? 100 to 1000 nM

----------
Parameter: pIC50. Scope: all listed entries.
Molecular target: HIV integrase (Human immunodeficiency virus type 1 group M subtype B, UniProt P12497, F1332H)
Construct: HIV integrase full length gene
Assay: Determination of enzyme (HIV integrase) inhibitory activity
Settings: recombinant integrase protein (phenylalanine at codon 185 substituted by histidine); donor/target DNA, absorbance at 450 nm; read-out: Anti-integrase activity (IC50 value)
Procedure: The following explains evaluation methods of the HIV integrase inhibitory activity of the compound of the present invention. […] A peroxidase color solution (Bio Rad, 100 μl) was added and allowed to react at room temperature for 4 min. […] The absorbance at 450 nm was measured. […]
pIC50: −log10 of the molar value.

Known results for molecules:
CC(C)[C@@H](CO)c1cc(C(=O)O)c(=O)n2cc(Cc3cccc(Cl)c3Cl)ccc12	> 8.00
COCC(=O)NCc1cc(C(=O)O)c(=O)n2cc(Cc3cccc(Cl)c3F)ccc12	7.00 to 8.00

Would you mind telling me what pIC50 value was observed for CC(=O)Nc1cc(C(=O)O)c(=O)n2cc(Cc3cccc(Cl)c3F)ccc12 ? 6.00 to 7.00

Would you kindly share the measured pIC50 for COCc1cc(C(=O)O)c(=O)n2cc(Cc3cccc(Cl)c3F)ccc12 ? 6.00 to 7.00

----------
This listing pairs compounds with measured IC50.
target: HIV integrase (Human immunodeficiency virus type 1 group M subtype B, UniProt P12497, F1332H); construct: HIV integrase full length gene; assay: Determination of enzyme (HIV integrase) inhibitory activity; conditions: recombinant integrase protein (phenylalanine at codon 185 substituted by histidine); donor/target DNA, absorbance at 450 nm; read-out: Anti-integrase activity (IC50 value)

Solved cases below.
NCc1cc(C(=O)O)c(=O)n2cc(Cc3cccc(Cl)c3F)ccc12	100 to 1000 nM
NC(=O)Cc1cc(C(=O)O)c(=O)n2cc(Cc3cccc(Cl)c3F)ccc12	10 to 100 nM
O=C(O)c1cc(CNC(=O)N2CCOCC2)c2ccc(Cc3cccc(Cl)c3F)cn2c1=O	10 to 100 nM
O=C(O)c1cc(CCO)c2ccc(Cc3cccc(Cl)c3F)cn2c1=O	10 to 100 nM

Recorded IC50 for CS(=O)(=O)NCc1cc(C(=O)O)c(=O)n2cc(Cc3cccc(Cl)c3F)ccc12 , please? 1000 to 10000 nM

Entry CO[C@H](C)C(=O)NCc1cc(C(=O)O)c(=O)n2cc(Cc3cccc(Cl)c3F)ccc12 : reported IC50 = ? 10 to 100 nM
